- ASSAYED_TARGET: sGC α1/β1 heterodimer (Homo sapiens, UniProt Q02108+Q02153)
- Construct: expressed in transfected cells
- Sequence (Q02108 whole entry): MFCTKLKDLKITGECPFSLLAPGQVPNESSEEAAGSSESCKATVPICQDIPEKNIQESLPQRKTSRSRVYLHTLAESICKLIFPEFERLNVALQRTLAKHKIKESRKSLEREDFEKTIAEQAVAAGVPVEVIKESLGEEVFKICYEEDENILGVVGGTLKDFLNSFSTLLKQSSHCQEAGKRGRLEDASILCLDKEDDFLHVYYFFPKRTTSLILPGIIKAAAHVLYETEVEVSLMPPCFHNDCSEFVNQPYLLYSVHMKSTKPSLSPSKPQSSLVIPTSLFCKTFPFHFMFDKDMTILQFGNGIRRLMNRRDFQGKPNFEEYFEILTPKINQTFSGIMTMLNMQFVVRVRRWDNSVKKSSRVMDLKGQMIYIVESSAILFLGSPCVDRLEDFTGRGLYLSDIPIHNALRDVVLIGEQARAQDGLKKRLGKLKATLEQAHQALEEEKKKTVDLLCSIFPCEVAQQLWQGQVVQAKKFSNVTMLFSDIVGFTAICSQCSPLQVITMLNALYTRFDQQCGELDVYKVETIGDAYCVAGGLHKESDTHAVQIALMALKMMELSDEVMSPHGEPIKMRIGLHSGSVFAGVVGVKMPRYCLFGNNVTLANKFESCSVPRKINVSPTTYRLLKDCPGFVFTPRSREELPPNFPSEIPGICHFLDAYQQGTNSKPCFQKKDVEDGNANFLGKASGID
- Sequence (Q02153 whole entry): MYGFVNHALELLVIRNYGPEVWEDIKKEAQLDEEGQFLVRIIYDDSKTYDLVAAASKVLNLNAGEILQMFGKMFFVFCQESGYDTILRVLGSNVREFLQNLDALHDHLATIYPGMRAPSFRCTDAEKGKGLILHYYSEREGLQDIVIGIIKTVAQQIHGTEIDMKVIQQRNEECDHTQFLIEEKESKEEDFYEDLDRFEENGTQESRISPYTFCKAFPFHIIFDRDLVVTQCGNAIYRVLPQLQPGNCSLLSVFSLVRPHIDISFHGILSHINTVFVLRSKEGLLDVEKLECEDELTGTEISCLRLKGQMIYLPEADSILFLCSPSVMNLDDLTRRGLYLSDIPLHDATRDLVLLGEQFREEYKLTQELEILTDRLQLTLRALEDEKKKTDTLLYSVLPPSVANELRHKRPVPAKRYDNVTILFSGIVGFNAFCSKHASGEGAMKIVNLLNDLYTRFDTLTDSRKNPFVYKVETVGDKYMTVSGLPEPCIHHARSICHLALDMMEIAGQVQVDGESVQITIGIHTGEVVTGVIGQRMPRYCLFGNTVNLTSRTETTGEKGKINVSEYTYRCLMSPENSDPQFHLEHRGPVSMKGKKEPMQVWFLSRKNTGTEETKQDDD
- TEST: Cell-Based sGC Functional Assay (CASA Assay)
- ASSAY_CONTEXT: CHO-K1/sGC cells; cGMP as percentage of maximum cGMP production of Compound A (=100% activation); read-out: % ACT (percent activation)
MEASUREMENT_LABEL: Emax (%)

Cn1ccc2c(-c3nc(N)c4c(n3)NC(=O)C4(C)c3ccccc3)nc(CCC(F)(F)C(F)(F)F)nc21 (single isomer, unassigned) [Example 62] = 92
[2H]C([2H])([2H])n1ncc2c(-c3nc(N)c4c(n3)NC(=O)C4(C)c3ccc(F)cc3)nc(CCC(F)(F)C(F)(F)F)nc21 (single isomer, unassigned) [Example 2] = 97
Cn1ncc2c(-c3nc(N)c4c(n3)NC(=O)C4(C)c3ccc(Br)cc3)nc(CCC(F)(F)C(F)(F)F)nc21 (single isomer, unassigned) [Example 10] = 116

[1] [2H]C([2H])([2H])OC1(C)C(=O)Nc2nc(-c3nc(CCC(F)(F)C(F)(F)F)nc4c3cnn4C)nc(N)c21 (centres unmarked) [Example 57]
[2] [2H]C([2H])([2H])n1nnc2c(-c3nc(N)c4c(n3)NC(=O)C4(C)c3ccc(Cl)cc3)nc(CCC(F)(F)C(F)(F)F)nc21 (single isomer, unassigned) [Example 70]
Hi! Which is lower in terms of Emax, the first one 1 or the second one 2 ? Return value: the label identifying the chosen record.
2

[A] Cn1ncc2c(-c3nc(N)c4c(n3)NC(=O)C4(C)c3ccc(F)cc3)nc(CCC(F)(F)F)nc21 (single isomer, unassigned) [Example 11]
[B] Cn1nc(Cl)c2c(-c3nc(N)c4c(n3)NC(=O)C4(C)c3ccc(F)cc3)nc(CCC(F)(F)C(F)(F)F)nc21 (single isomer, unassigned) [Example 58]
Which record shows the lower Emax: the first, A , or the second, B ? # answer = label of selected item
B

###

- ASSAYED_TARGET: sGC α1/β1 heterodimer (Homo sapiens, UniProt Q02108+Q02153)
- Construct: expressed in transfected cells
- TEST: Cell-Based sGC Functional Assay (CASA Assay)
- ASSAY_CONTEXT: CHO-K1/sGC cells; cGMP as percentage of maximum cGMP production of Compound A (=100% activation); read-out: % ACT (percent activation)
MEASUREMENT_LABEL: Emax (%)

[2H]C([2H])([2H])n1nnc2c(-c3nc(N)c4c(n3)NC(=O)C4(C)c3ccc(Cl)cc3F)nc(CCC(F)(F)C(F)(F)F)nc21 (single isomer, unassigned) = 97
[2H]C([2H])([2H])n1ncc2c(-c3nc(N)c4c(n3)NC(=O)C4(C)C(=O)NCC)nc(CCC(F)(F)C(F)(F)F)nc21 (single isomer, unassigned) = 104
[2H]C([2H])([2H])n1ncc2c(-c3nc(N)c4c(n3)NC(=O)C4(C)c3cccc(O)c3)nc(CCC(F)(F)C(F)(F)F)nc21 (centres unmarked) = 88
[2H]C([2H])([2H])n1ncc2c(-c3nc(N)c4c(n3)NC(=O)C4(C)c3ccc(-c4nnco4)cc3)nc(CCC(F)(F)C(F)(F)F)nc21 (single isomer, unassigned) = 138
Cn1ncc2c(-c3nc(N)c4c(n3)NC(=O)C4(C)c3ccccc3)nc(CCC(F)(F)C(F)(F)F)nc21 (single isomer, unassigned) = 101
Cn1ncc2c(-c3nc(N)c4c(n3)NC(=O)C4(C)C3CCCCC3)nc(CCC(F)(F)C(F)(F)F)nc21 (single isomer, unassigned) = 122
[2H]C([2H])([2H])n1ncc2c(-c3nc(N)c4c(n3)NC(=O)C4(C(=O)NCC)C3CC3)nc(CCC(F)(F)C(F)(F)F)nc21 (single isomer, unassigned) = 131
[2H]C([2H])([2H])n1ncc2c(-c3nc(N)c4c(n3)NC(=O)C4(CC)C(N)=O)nc(CCC(F)(F)C(F)(F)F)nc21 (single isomer, unassigned) = 121
C#CC1(CC)C(=O)Nc2nc(-c3nc(CCC(F)(F)C(F)(F)F)nc4c3cnn4C)nc(N)c21 (single isomer, unassigned) = 106
Cn1ncc2c(-c3nc(N)c4c(n3)NC(=O)C4(C)C#N)nc(CCC(F)(F)C(F)(F)F)nc21 (single isomer, unassigned) = 105
Cn1ncc2c(-c3nc(N)c4c(n3)NC(=O)C4(C)c3ccc(F)cc3)nc(CCC(F)(F)C(F)(F)F)nc21 (single isomer, unassigned) = 110
